Test: Half-life in plasma
Type: in vitro ADME
Details: unit inferred, unit assumed
assay.readout: t 1/2 plasma (min)

[[record]]
compound = "CCCC(NC(=O)C(CC(C)C)NC(=O)OCc1ccccc1)C(=O)C(=O)OCC (stereo not drawn) [Z--Leu--Nva--COOEt]"
assay_readout = "t 1/2 plasma"
comparison_sign = "="
value_observed = 2.8

[[record]]
compound = "CCCNC(=O)C(=O)[C@H](CC)NC(=O)[C@H](CC(C)C)NC(=O)OCc1ccccc1 [Z--Leu--Abu--CONH--nPr, Z-Leu-Abu-CONH-nPr]"
assay_readout = "t 1/2 plasma"
comparison_sign = ">"
value_observed = 60

[[record]]
compound = "CCCCNC(=O)C(=O)C(CC)NC(=O)C(CC(C)C)NC(=O)OCc1ccccc1 (stereo not drawn) [Z--Leu--Abu--CONH--nBu, Z-Leu-Abu-CONH-nBu]"
assay_readout = "t 1/2 plasma"
comparison_sign = ">"
value_observed = 60

[[record]]
compound = "CCCCNC(=O)C(=O)C(Cc1ccccc1)NC(=O)C(CC(C)C)NC(=O)OCc1ccccc1 (stereo not drawn) [Z--Leu--Phe--CONH--nBu, Z-Leu-Phe-CONH-nBu]"
assay_readout = "t 1/2 plasma"
comparison_sign = ">"
value_observed = 60

[[record]]
compound = "CCC(NC(=O)C(CC(C)C)NC(=O)OCc1ccccc1)C(=O)C(=O)NCC(C)C (stereo not drawn) [Z--Leu--Abu--CONH--iBu, Z-Leu-Abu-CONH-iBu]"
assay_readout = "t 1/2 plasma"
comparison_sign = ">"
value_observed = 60

[[record]]
compound = "CCOC(=O)C(=O)[C@H](CC)NC(=O)[C@H](CC(C)C)NC(=O)[C@H](CC(C)C)NC(=O)c1ccc2ccccc2c1 [2-NapCO--Leu--Leu--Abu--COOEt]"
assay_readout = "t 1/2 plasma"
comparison_sign = "="
value_observed = 25

[[record]]
compound = "CC(C)CNC(=O)C(=O)[C@H](Cc1ccccc1)NC(=O)[C@H](CC(C)C)NC(=O)OCc1ccccc1 [Z--Leu--Phe--CONH--iBu, Z-Leu-Phe-CONH-iBu]"
assay_readout = "t 1/2 plasma"
comparison_sign = ">"
value_observed = 60

[[record]]
compound = "CCCCC(NC(=O)C(CC(C)C)NC(=O)OCc1ccccc1)C(=O)C(=O)OCC (stereo not drawn) [Z--Leu--Nle--COOEt]"
assay_readout = "t 1/2 plasma"
comparison_sign = "="
value_observed = 3.7

[[record]]
compound = "CCOC(=O)C(=O)[C@H](CC)NC(=O)[C@H](CC(C)C)NC(=O)[C@H](CC(C)C)NS(=O)(=O)c1ccc(C)cc1 [Tos--Leu--Leu--Abu--COOEt]"
assay_readout = "t 1/2 plasma"
comparison_sign = "="
value_observed = 30


====

Target: Calpain II from rabbit muscle
Experiment: Inhibition of calpain II (Suc-Leu-Tyr-AMC hydrolysis)
Assay type: biochemical
pKi: −log10 of the molar value.
# if value of pKi reaches 7, tag T; if it stays below, tag F

[[record]]
molecule = "CCCCCCCCNC(=O)C(=O)[C@H](CC)NC(=O)[C@H](CC(C)C)NC(=O)OCc1ccccc1 [Z--Leu--Abu--CONH--(CH2)7 CH3, Z-Leu-Abu-CONH--(CH2)7 CH3]"
tested_on = "Calpain II from rabbit muscle"
group = "T"

[[record]]
molecule = "CC[C@H](NC(=O)[C@H](CC(C)C)NC(=O)OCc1ccccc1)C(=O)C(=O)NCCCN1CCOCC1 [Z--Leu--Abu--CONH--(CH2)3 --Mpl, Z-Leu-Abu-CONH-(CH2)3 --N(CH2 CH2)2 O]"
tested_on = "Calpain II from rabbit muscle"
group = "T"

[[record]]
molecule = "CCCCNC(=O)C(=O)C(Cc1ccccc1)NC(=O)C(CC(C)C)NC(=O)OCc1ccccc1 (stereo not drawn) [Z--Leu--Phe--CONH--nBu, Z-Leu-Phe-CONH-nBu]"
tested_on = "Calpain II from rabbit muscle"
group = "T"

[[record]]
molecule = "CCCNC(=O)C(=O)C(Cc1ccccc1)NC(=O)C(CC(C)C)NC(=O)OCc1ccccc1 (stereo not drawn) [Z--Leu--Phe--CONH--nPr, Z-Leu-Phe-CONH-nPr]"
tested_on = "Calpain II from rabbit muscle"
group = "T"

[[record]]
molecule = "CCCNC(=O)C(=O)[C@H](CC)NC(=O)[C@H](CC(C)C)NC(=O)OCc1ccccc1 [Z--Leu--Abu--CONH--nPr, Z-Leu-Abu-CONH-nPr]"
tested_on = "Calpain II from rabbit muscle"
group = "F"

[[record]]
molecule = "CC(C)C[C@H](NC(=O)OCc1ccccc1)C(=O)N[C@@H](Cc1ccccc1)C(=O)C(=O)NCCc1ccccc1 [Z--Leu--Phe--CONH(CH2)2 Ph, Z-Leu-Phe-CONH-(CH2)2 Ph]"
tested_on = "Calpain II from rabbit muscle"
group = "T"

[[record]]
molecule = "CC(C)C[C@H](NC(=O)OCc1ccccc1)C(=O)N[C@@H](Cc1ccccc1)C(=O)C(=O)NCc1ccccc1 [Z--Leu--Phe--CONH--Bzl, Z-Leu-Phe-CONH-Bzl]"
tested_on = "Calpain II from rabbit muscle"
group = "T"

[[record]]
molecule = "CCNC(=O)C(=O)[C@H](CC)NC(=O)[C@H](CC(C)C)NC(=O)OCc1ccccc1 [Z--Leu--Abu--CONH--Et, Z-Leu-Abu-CONH-Et]"
tested_on = "Calpain II from rabbit muscle"
group = "F"

[[record]]
molecule = "CCNC(=O)C(=O)[C@H](Cc1ccccc1)NC(=O)[C@H](CC(C)C)NC(=O)OCc1ccccc1 [Z--Leu--Phe--CONH--Et, Z-Leu-Phe-CONH-Et]"
tested_on = "Calpain II from rabbit muscle"
group = "F"


====

Biological target: cathepsin B
Experiment: Inhibition of cathepsin B
Conditions: read-out: KI Cath B
pKi: −log10 of the molar value.
assay.readout: pKi

[[record]]
molecule = "CCCNC(=O)C(=O)[C@H](CC)NC(=O)[C@H](CC(C)C)NC(=O)OCc1ccccc1 [Z--Leu--Abu--CONH--nPr, Z-Leu-Abu-CONH-nPr]"
tested_on = "cathepsin B"
assay_readout = "pKi"
value_observed = 5.10

[[record]]
molecule = "CCCNC(=O)C(=O)C(Cc1ccccc1)NC(=O)C(CC(C)C)NC(=O)OCc1ccccc1 (stereo not drawn) [Z--Leu--Phe--CONH--nPr, Z-Leu-Phe-CONH-nPr]"
tested_on = "cathepsin B"
assay_readout = "pKi"
value_observed = 5.52

[[record]]
molecule = "CCC(NC(=O)C(CC(C)C)NC(=O)OCc1ccccc1)C(=O)C(=O)NCC(C)C (stereo not drawn) [Z--Leu--Abu--CONH--iBu, Z-Leu-Abu-CONH-iBu]"
tested_on = "cathepsin B"
assay_readout = "pKi"
value_observed = 5.40

[[record]]
molecule = "CCC(NC(=O)C(CC(C)C)NC(=O)OCc1ccccc1)C(=O)C(=O)NCc1ccccc1 (stereo not drawn) [Z--Leu--Abu--CONH--Bzl, Z-Leu-Abu-CONH-Bzl]"
tested_on = "cathepsin B"
assay_readout = "pKi"
value_observed = 5.70

[[record]]
molecule = "CCCCNC(=O)C(=O)C(CC)NC(=O)C(CC(C)C)NC(=O)OCc1ccccc1 (stereo not drawn) [Z--Leu--Abu--CONH--nBu, Z-Leu-Abu-CONH-nBu]"
tested_on = "cathepsin B"
assay_readout = "pKi"
value_observed = 4.89

[[record]]
molecule = "CC(C)CNC(=O)C(=O)[C@H](Cc1ccccc1)NC(=O)[C@H](CC(C)C)NC(=O)OCc1ccccc1 [Z--Leu--Phe--CONH--iBu, Z-Leu-Phe-CONH-iBu]"
tested_on = "cathepsin B"
assay_readout = "pKi"
value_observed = 5.40

[[record]]
molecule = "CCNC(=O)C(=O)[C@H](Cc1ccccc1)NC(=O)[C@H](CC(C)C)NC(=O)OCc1ccccc1 [Z--Leu--Phe--CONH--Et, Z-Leu-Phe-CONH-Et]"
tested_on = "cathepsin B"
assay_readout = "pKi"
value_observed = 5.22

[[record]]
molecule = "CCCCNC(=O)C(=O)C(Cc1ccccc1)NC(=O)C(CC(C)C)NC(=O)OCc1ccccc1 (stereo not drawn) [Z--Leu--Phe--CONH--nBu, Z-Leu-Phe-CONH-nBu]"
tested_on = "cathepsin B"
assay_readout = "pKi"
value_observed = 5.52

[[record]]
molecule = "CCNC(=O)C(=O)[C@H](CC)NC(=O)[C@H](CC(C)C)NC(=O)OCc1ccccc1 [Z--Leu--Abu--CONH--Et, Z-Leu-Abu-CONH-Et]"
tested_on = "cathepsin B"
assay_readout = "pKi"
value_observed = 5.62


====

Tested on: Calpain-mediated breakdown of spectrin in platelets
Assay: Platelet membrane permeability assay
Assay type: cell-based, rat
Set-up: unit not given here
Conditions: numeric value, unit not given
# if value of platelet (Activity in the Platelet Assay) reaches 8, tag Yes; if it stays below, tag No

[[record]]
compound = "CC(C)CNC(=O)C(=O)[C@H](Cc1ccccc1)NC(=O)[C@H](CC(C)C)NC(=O)OCc1ccccc1"
group = "Yes"

[[record]]
compound = "CCCC(NC(=O)C(CC(C)C)NC(=O)OCc1ccccc1)C(=O)C(=O)OCC (centres unmarked)"
group = "Yes"

[[record]]
compound = "CCCNC(=O)C(=O)C(Cc1ccccc1)NC(=O)C(CC(C)C)NC(=O)OCc1ccccc1 (centres unmarked)"
group = "Yes"

[[record]]
compound = "CC(C)C[C@H](NC(=O)OCc1ccccc1)C(=O)N[C@@H](Cc1ccccc1)C(=O)C(=O)NCCc1ccccc1"
group = "No"

[[record]]
compound = "CCOC(=O)C(=O)[C@H](CC)NC(=O)[C@H](CC(C)C)NC(=O)[C@H](CC(C)C)NS(=O)(=O)c1ccc(C)cc1"
group = "Yes"

[[record]]
compound = "CCCCNC(=O)C(=O)C(Cc1ccccc1)NC(=O)C(CC(C)C)NC(=O)OCc1ccccc1 (centres unmarked)"
group = "Yes"

[[record]]
compound = "CCC(NC(=O)C(CC(C)C)NC(=O)OCc1ccccc1)C(=O)C(=O)NCC(C)C (centres unmarked)"
group = "Yes"

[[record]]
compound = "CCCCOC(=O)C(=O)[C@H](CC)NC(=O)[C@H](CC(C)C)NC(=O)OCc1ccccc1"
group = "Yes"

[[record]]
compound = "CC(C)CC(NC(=O)OCc1ccccc1)C(=O)NC(Cc1ccccc1)C(=O)C(=O)O (centres unmarked)"
group = "No"

[[record]]
compound = "CCNC(=O)C(=O)[C@H](CC)NC(=O)[C@H](CC(C)C)NC(=O)OCc1ccccc1"
group = "No"

[[record]]
compound = "CCCNC(=O)C(=O)[C@H](CC)NC(=O)[C@H](CC(C)C)NC(=O)OCc1ccccc1"
group = "Yes"

[[record]]
compound = "CCNC(=O)C(=O)[C@H](Cc1ccccc1)NC(=O)[C@H](CC(C)C)NC(=O)OCc1ccccc1"
group = "No"

[[record]]
compound = "CCC(NC(=O)C(CC(C)C)NC(=O)OCc1ccccc1)C(=O)C(=O)NCc1ccccc1 (centres unmarked)"
group = "No"

[[record]]
compound = "CCCCC(NC(=O)C(CC(C)C)NC(=O)OCc1ccccc1)C(=O)C(=O)OCC (centres unmarked)"
group = "Yes"

[[record]]
compound = "CCOC(=O)C(=O)C(CC)NC(=O)C(CC(C)C)NC(=O)C(CC(C)C)NS(=O)(=O)c1ccc2ccccc2c1 (centres unmarked)"
group = "Yes"

[[record]]
compound = "CCOC(=O)C(=O)C(CC)NC(=O)C(CC(C)C)NC(=O)C(CC(C)C)NC(=O)OCc1ccccc1 (centres unmarked)"
group = "Yes"

[[record]]
compound = "CCCCNC(=O)C(=O)C(CC)NC(=O)C(CC(C)C)NC(=O)OCc1ccccc1 (centres unmarked)"
group = "No"

[[record]]
compound = "CCOC(=O)C(=O)[C@H](CC)NC(=O)[C@H](CC(C)C)NC(=O)OCc1ccccc1"
group = "Yes"

[[record]]
compound = "CCOC(=O)C(=O)C(Cc1ccccc1)NC(=O)C(CC(C)C)NC(=O)OCc1ccccc1 (centres unmarked)"
group = "Yes"


These entries and their values trace back to patent US5610297A.
